Molecular target: FcγRIIIA-158V
Assay: SPR
measureName: pKd
Recall that pKd is obtained by taking minus log10 of the concentration measured in molar.

Record excerpt, results attached:
INSERT INTO assay_data (binder, measurename, readoutnumber) VALUES
  ('Palivizumab (antibody, V domains shown) VH: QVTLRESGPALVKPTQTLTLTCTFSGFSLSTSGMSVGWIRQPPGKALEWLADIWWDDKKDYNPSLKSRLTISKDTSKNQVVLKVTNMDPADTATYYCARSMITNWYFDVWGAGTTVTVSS VL: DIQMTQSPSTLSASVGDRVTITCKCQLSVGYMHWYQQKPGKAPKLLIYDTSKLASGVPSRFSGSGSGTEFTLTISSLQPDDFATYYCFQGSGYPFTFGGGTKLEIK', 'pKd', 6.05),
  ('Nirsevimab (antibody, V domains shown) VH: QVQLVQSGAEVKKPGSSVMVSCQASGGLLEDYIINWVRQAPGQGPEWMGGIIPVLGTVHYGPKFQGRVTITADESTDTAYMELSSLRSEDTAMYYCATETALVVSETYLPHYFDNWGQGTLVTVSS VL: DIQMTQSPSSLSAAVGDRVTITCQASQDIVNYLNWYQQKPGKAPKLLIYVASNLETGVPSRFSGSGSGTDFSLTISSLQPEDVATYYCQQYDNLPLTFGGGTKVEIK', 'pKd', 5.68),
  ('MEDI8897* (antibody, V domains shown) VH: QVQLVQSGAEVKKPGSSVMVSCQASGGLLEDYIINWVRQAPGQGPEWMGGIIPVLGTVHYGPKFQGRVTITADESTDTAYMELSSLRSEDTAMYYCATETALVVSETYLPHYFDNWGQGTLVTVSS VL: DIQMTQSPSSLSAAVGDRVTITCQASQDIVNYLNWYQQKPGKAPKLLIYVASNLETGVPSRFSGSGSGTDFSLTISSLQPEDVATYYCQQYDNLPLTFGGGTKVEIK', 'pKd', 5.94);

// next item, pKd requested
Enquiry: Which pKd value belongs to MEDI8897*-TM (antibody, V domains shown) VH: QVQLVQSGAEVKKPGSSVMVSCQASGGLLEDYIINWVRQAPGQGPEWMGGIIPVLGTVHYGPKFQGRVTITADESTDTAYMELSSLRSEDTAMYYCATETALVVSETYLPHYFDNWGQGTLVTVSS VL: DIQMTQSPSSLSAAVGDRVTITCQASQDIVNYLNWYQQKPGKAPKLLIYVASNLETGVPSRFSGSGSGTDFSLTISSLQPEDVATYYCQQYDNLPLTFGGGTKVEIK ?
Return: 5.29
